Test method notes: Elimination half life in Swiss mouse plasma at 3 mg/kg, po after 0.16 to 8 hrs by LC-MS analysis
Type: ADME, organism-based
Condition: read-out: beta t1/2 (converted)
Recorded endpoint: half-life (h)

molecule_smiles=CN(C)C(=O)c1ccc(Oc2nc(-c3cccc4[nH]ncc34)nc(N3CCOCC3)n2)cc1 recorded_endpoint=half-life observed_measurement=4.86

* * *

Listed here: compounds with reported pIC50 for Cytochrome P450 3A4 (Homo sapiens, UniProt P08684).
pIC50: −log10 of the molar value.
Recorded endpoint: pIC50

molecule_smiles=CN(C)C(=O)N1CCC(Oc2nc(-c3cccc4[nH]ncc34)nc(N3CCOCC3)n2)CC1 recorded_endpoint=pIC50 observed_measurement="< 4.82"
molecule_smiles=CN(C)C(=O)c1ccc(Oc2nc(-c3cccc4[nH]ncc34)nc(N3CCOCC3)n2)cc1 recorded_endpoint=pIC50 observed_measurement="< 4.82"
